Substrate: O=C1CCCC/C1=C\c1ccccc1
Assay: purified protein
Assay type: biochemical, Bacillus subtilis
Conditions: 1.0 mM NADPH, 10 μM enzyme, PBS 100 mM, pH 7.5, 30 °C
MEASUREMENT_LABEL: kcat/Km (M⁻¹ s⁻¹)
Give bare numbers, in M⁻¹ s⁻¹.

Some proteins with recorded kcat/Km:
{"PROTEIN": "YqjM (Bacillus subtilis subsp. subtilis str. 168; I69Y) (protein, ene-reductase, FMN enzyme) ARKLFTPITIKDMTLKNRIVMSPMCMYSSHEKDGKLTPFHMAHYISRAIGQVGLIIVEASAVNPQGRYTDQDLGIWSDEHIEGFAKLTEQVKEQGSKIGIQLAHAGRKAELEGDIFAPSAIAFDEQSATPVEMSAEKVKETVQEFKQAAARAKEAGFDVIEIHAAHGYLIHEFLSPLSNHRTDEYGGSPENRYRFLREIIDEVKQVWDGPLFVRVSASDYTDKGLDIADHIGFAKWMKEQGVDLIDCSSGALVHADINVFPGYQVSFAEKIREQADMATGAVGMITDGSMAEEILQNGRADLIFIGRELLRDPFFARTAAKQLNTEIPAPVQYERGW", "kcat/Km [M⁻¹ s⁻¹]": 190}
{"PROTEIN": "YqjM (Bacillus subtilis subsp. subtilis str. 168) (protein, ene-reductase, FMN enzyme) ARKLFTPITIKDMTLKNRIVMSPMCMYSSHEKDGKLTPFHMAHYISRAIGQVGLIIVEASAVNPQGRITDQDLGIWSDEHIEGFAKLTEQVKEQGSKIGIQLAHAGRKAELEGDIFAPSAIAFDEQSATPVEMSAEKVKETVQEFKQAAARAKEAGFDVIEIHAAHGYLIHEFLSPLSNHRTDEYGGSPENRYRFLREIIDEVKQVWDGPLFVRVSASDYTDKGLDIADHIGFAKWMKEQGVDLIDCSSGALVHADINVFPGYQVSFAEKIREQADMATGAVGMITDGSMAEEILQNGRADLIFIGRELLRDPFFARTAAKQLNTEIPAPVQYERGW", "kcat/Km [M⁻¹ s⁻¹]": 20}
{"PROTEIN": "YqjM (Bacillus subtilis subsp. subtilis str. 168; C26A/I69Y) (protein, ene-reductase, FMN enzyme) ARKLFTPITIKDMTLKNRIVMSPMAMYSSHEKDGKLTPFHMAHYISRAIGQVGLIIVEASAVNPQGRYTDQDLGIWSDEHIEGFAKLTEQVKEQGSKIGIQLAHAGRKAELEGDIFAPSAIAFDEQSATPVEMSAEKVKETVQEFKQAAARAKEAGFDVIEIHAAHGYLIHEFLSPLSNHRTDEYGGSPENRYRFLREIIDEVKQVWDGPLFVRVSASDYTDKGLDIADHIGFAKWMKEQGVDLIDCSSGALVHADINVFPGYQVSFAEKIREQADMATGAVGMITDGSMAEEILQNGRADLIFIGRELLRDPFFARTAAKQLNTEIPAPVQYERGW", "kcat/Km [M⁻¹ s⁻¹]": 380}
{"PROTEIN": "YqjM (Bacillus subtilis subsp. subtilis str. 168; I69G) (protein, ene-reductase, FMN enzyme) ARKLFTPITIKDMTLKNRIVMSPMCMYSSHEKDGKLTPFHMAHYISRAIGQVGLIIVEASAVNPQGRGTDQDLGIWSDEHIEGFAKLTEQVKEQGSKIGIQLAHAGRKAELEGDIFAPSAIAFDEQSATPVEMSAEKVKETVQEFKQAAARAKEAGFDVIEIHAAHGYLIHEFLSPLSNHRTDEYGGSPENRYRFLREIIDEVKQVWDGPLFVRVSASDYTDKGLDIADHIGFAKWMKEQGVDLIDCSSGALVHADINVFPGYQVSFAEKIREQADMATGAVGMITDGSMAEEILQNGRADLIFIGRELLRDPFFARTAAKQLNTEIPAPVQYERGW", "kcat/Km [M⁻¹ s⁻¹]": 120}

# input for lookup
Q: Quick one: kcat/Km for YqjM (Bacillus subtilis subsp. subtilis str. 168; C26G/I69Y) (protein, ene-reductase, FMN enzyme) ARKLFTPITIKDMTLKNRIVMSPMGMYSSHEKDGKLTPFHMAHYISRAIGQVGLIIVEASAVNPQGRYTDQDLGIWSDEHIEGFAKLTEQVKEQGSKIGIQLAHAGRKAELEGDIFAPSAIAFDEQSATPVEMSAEKVKETVQEFKQAAARAKEAGFDVIEIHAAHGYLIHEFLSPLSNHRTDEYGGSPENRYRFLREIIDEVKQVWDGPLFVRVSASDYTDKGLDIADHIGFAKWMKEQGVDLIDCSSGALVHADINVFPGYQVSFAEKIREQADMATGAVGMITDGSMAEEILQNGRADLIFIGRELLRDPFFARTAAKQLNTEIPAPVQYERGW ?
Result: 1690
